Molecular target: TYK2 (Homo sapiens)
Construct: Degradation of TYK2 in cells was quantitatively measured using Meso Scale Discovery (MSD) technology; endogenous in cells; host or cells: OCI-LY10
Sequence (P29597 whole entry): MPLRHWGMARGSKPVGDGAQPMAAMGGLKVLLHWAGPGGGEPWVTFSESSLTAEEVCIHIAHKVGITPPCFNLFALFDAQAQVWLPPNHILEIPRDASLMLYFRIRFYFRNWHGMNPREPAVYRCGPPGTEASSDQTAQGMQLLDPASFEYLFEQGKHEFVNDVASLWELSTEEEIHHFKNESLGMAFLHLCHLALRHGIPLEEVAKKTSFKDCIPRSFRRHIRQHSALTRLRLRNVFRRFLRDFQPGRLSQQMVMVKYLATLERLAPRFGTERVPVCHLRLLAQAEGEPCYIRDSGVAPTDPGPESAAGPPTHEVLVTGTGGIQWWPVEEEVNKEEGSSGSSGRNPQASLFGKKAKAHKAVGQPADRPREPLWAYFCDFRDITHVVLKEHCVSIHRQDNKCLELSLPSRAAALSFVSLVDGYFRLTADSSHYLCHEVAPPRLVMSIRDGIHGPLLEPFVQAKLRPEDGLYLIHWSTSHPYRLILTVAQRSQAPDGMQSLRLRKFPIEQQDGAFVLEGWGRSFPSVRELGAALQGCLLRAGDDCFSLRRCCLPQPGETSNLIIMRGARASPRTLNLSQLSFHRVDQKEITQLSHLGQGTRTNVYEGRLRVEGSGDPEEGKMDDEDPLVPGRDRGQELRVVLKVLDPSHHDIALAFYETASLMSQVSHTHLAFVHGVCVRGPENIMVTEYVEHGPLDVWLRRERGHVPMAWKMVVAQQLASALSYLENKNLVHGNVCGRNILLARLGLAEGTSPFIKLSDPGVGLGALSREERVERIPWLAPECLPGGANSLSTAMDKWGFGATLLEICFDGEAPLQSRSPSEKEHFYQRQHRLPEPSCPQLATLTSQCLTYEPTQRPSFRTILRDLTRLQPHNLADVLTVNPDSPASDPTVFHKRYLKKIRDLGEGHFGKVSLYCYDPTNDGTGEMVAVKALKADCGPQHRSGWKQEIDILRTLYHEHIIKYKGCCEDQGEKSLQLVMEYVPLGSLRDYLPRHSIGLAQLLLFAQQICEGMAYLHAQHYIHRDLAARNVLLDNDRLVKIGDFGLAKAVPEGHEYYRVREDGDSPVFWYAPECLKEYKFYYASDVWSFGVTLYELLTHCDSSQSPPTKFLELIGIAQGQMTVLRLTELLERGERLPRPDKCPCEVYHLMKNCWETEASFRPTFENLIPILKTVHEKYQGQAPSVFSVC
Assay: TYK2 MSD degradation in OCI-LY10 cells
Format: cell-based
Conditions: TYK2 degradation in OCI-LY10 cells, 4 to 24 hours incubation, read-out: TYK2 MSD OCI-LY10 Rel-DC50

{"compound": "CNc1cc(N2CCc3c(CN4CCC(N5CCC6(CCN(C(=O)c7cc(N8CCC(=O)NC8=O)c(Cl)c(C)n7)CC6)CC5)C(F)(F)C4)cccc32)nn2c(C(=O)N[C@@H]3CC[C@H]3OC)cnc12 (some centres unmarked)", "DC50": "< 1 nM"}
{"compound": "CNc1cc(-c2ccc(N3CCC(CN4CC5(CCN(C(=O)c6ccc(Cl)c(N7CCC(=O)NC7=O)c6)CC5(F)F)C4)CC3)cc2)nn2c(C(=O)N[C@@H]3C[C@@H]3F)cnc12", "DC50": "> 100 nM"}
{"compound": "CNc1cc(N2CCc3c(-c4ccc(OC5CCC6(CC5)CCN(C(=O)c5ccc(Cl)c(N7CCC(=O)NC7=O)c5)CC6)cn4)cccc32)nn2c(C(=O)N[C@@H]3C[C@@H]3F)cnc12", "DC50": "< 10 nM"}
{"compound": "CNc1cc(N2CCc3c(CN4CCC(N5CCC6(CC5)CN(C(=O)c5cc(N7CCC(=O)NC7=O)c(Cl)c(C)n5)C6)C(F)(F)C4)cccc32)nn2c(C(=O)N[C@@H]3CC[C@H]3OC)cnc12 (some centres unmarked)", "DC50": "< 1 nM"}
{"compound": "CNc1cc(N2CCc3c(CN4CCC(N5CCC6(CCN(C(=O)c7cc(C)c(Cl)c(N8CCC(=O)NC8=O)c7)CC6)CC5)C(F)(F)C4)cc(Cl)cc32)nn2c(C(=O)N[C@@H]3CC[C@H]3OC)cnc12 (some centres unmarked)", "DC50": "< 10 nM"}
{"compound": "CNc1cc(N2CCc3c(-c4ccc(CN5CCC6(CCN(C(=O)c7ccc(Cl)c(N8CCC(=O)NC8=O)c7)CC6)C(F)(F)C5)cn4)cccc32)nn2c(C(=O)NC34CC(C3)C4)cnc12", "DC50": "10 to 100 nM"}
{"compound": "CNc1cc(N2CCc3c(CN4CC[C@H](N5CCC6(CCN(C(=O)c7cc(N8CCC(=O)NC8=O)c(Cl)cn7)CC6)CC5)C(F)(F)C4)cc(F)cc32)nn2c(C(=O)N[C@@H]3CC[C@H]3OC)cnc12", "DC50": "< 1 nM"}
{"compound": "CNc1cc(N2CCc3c(-c4ccc(CN5CC6(CCN(C(=O)c7ccc(Cl)c(N8CCC(=O)NC8=O)c7)CC6(F)F)C5)cn4)cc(C)cc32)nn2c(C(=O)N[C@@H]3C[C@@H]3F)cnc12", "DC50": "< 10 nM"}
{"compound": "CNc1cc(N2CCc3c(-c4ccc(CN5CCC(N6CCC7(CCN(c8cccc9c8n(C)c(=O)n9C8CCC(=O)NC8=O)CC7)CC6)C(F)(F)C5)cn4)cccc32)nn2c(C(=O)N[C@@H]3C[C@@H]3F)cnc12 (some centres unmarked)", "DC50": "< 10 nM"}
{"compound": "CNc1cc(N2CCc3c(CN4CCC(N5CC(N6CCN(c7cccc8c(N9CCC(=O)NC9=O)nn(C)c78)CC6)C5)C(F)(F)C4)cccc32)nn2c(C(=O)N[C@@H]3C[C@@H]3F)cnc12 (some centres unmarked)", "DC50": "< 10 nM"}
{"compound": "CNc1cc(N2CC3(CCN(C4CCN(c5cccc6c5n(C)c(=O)n6C5CCC(=O)NC5=O)CC4)CC3)c3ccccc32)nn2c(C(=O)NC3CC3)cnc12 (centres unmarked)", "DC50": "> 100 nM"}
{"compound": "CNc1cc(N2CCc3c(-c4ccc(CN5CC6(CCN(C(=O)c7ccc(Cl)c(N8CCC(=O)NC8=O)c7)CC6(F)F)C5)cn4)cccc32)nn2c(C(=O)N[C@H]3C[C@H](C)C3)cnc12", "DC50": "< 10 nM"}
{"compound": "CCNC(=O)c1nnc(Nc2ccc(CN3CC4(CCN(c5cccc6c5n(C)c(=O)n6C5CCC(=O)NC5=O)CC4(F)F)C3)cn2)cc1Nc1cccc(F)c1OC (centres unmarked)", "DC50": "10 to 100 nM"}
{"compound": "CNc1cc(N2CCc3c(-c4ccc(CN5CC6(CCN(Cc7ccc(Cl)c(N8CCC(=O)NC8=O)c7)CC6(F)F)C5)cn4)cccc32)nn2c(C(=O)N[C@@H]3C[C@@H]3F)cnc12", "DC50": "> 100 nM"}
